system tested: T1, human GITR-Fc (human, UniProt Q9Y5U5 26-161)
T1 construct: Recombinant GITR-Fc; also called hGITR-Fc; hGITR; not shown: Fc part
T1 sequence (looked up): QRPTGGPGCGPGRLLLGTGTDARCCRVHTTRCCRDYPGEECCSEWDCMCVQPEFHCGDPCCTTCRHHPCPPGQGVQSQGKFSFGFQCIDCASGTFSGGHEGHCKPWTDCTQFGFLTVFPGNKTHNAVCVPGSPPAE
test name: direct ELISA, IgG at 1 µg/ml
Method: Off-target homologue binding risk for mVH/mVL (FIG. 8A), VH3/VL2 (FIG. 8B) and lead engineered IgG clones G-G10 (FIG. 8C), I-C2 (FIG. 8D) and D-A6 (FIG. 8E) was examined by direct ELISA on GITR-Fc orthologs and a panel of 13 human TNFRSF and immunoglobulin superfamily proteins (as labelled on each X-axis). […] Anti-GITR antibodies were tested for polyreactivity by ELISA. […] Binding of VH1/VI1 and D-A6 IgG1 proteins were detected by subsequent incubation with a PE labelled goat anti-human IgG. […]
recorded metric: OD450 nm

Inquiry: Consider the binder shown here: I-C2 IgG1 (antibody, V domains shown, Human IgG1) VH: EVQLVESGGGLVQPGGSLRLSCAASGFSLSTSGYGVGWVRQAPGKGLEWLAHIWWDDDKYYVDSVKGRFTISRDNAKNSLYLQMNSLRAEDTAVYYCARTRLYFPFAYWGQGTLVTVSS VL: EIVLTQSPATLSLSPGERATLSCRASQNVGSNLAWYQQKPGQAPRLLIYSASNRYSGIPARFSGSGSGTDFTLTISSLEPEDFAVYYCQQYSTDPLTFGGGTKVEIK What is its recorded OD450 nm?
Reply text: > 3 OD450 nm

Source: patent US20190375846A1
